Origin of measurements: paper PMC8162404

- system name: CaM (Bos taurus, UniProt P62157)
- Construct: made in house; host or cells: E. coli BL21 (DE3)
- run description: Pull-down assay with immobilized protein and LSM libraries
- Assay type: binding, bovine
- settings: H14 library; 1:2 stoichiometry assumed; read-out: Surface mapping KD (apparent)
- Method: Pull-down assays with immobilized test proteins and foldameric LSM libraries were carried out. Proteins were equilibrated with LSM probes, and equilibrium bound fractions (FB) were determined from the unbound fractions measured by HPLC-MS methods. Hits were corrected with background binding of the resin. […] MS data analysis. […] Using these processing setups, all raw data files were reprocessed together and analyzed. […]
Kd values by entry
Write it as a number; the unit µM goes unstated.

Check out these entries, answers already filled in.
{"item smiles": "C[C@@H](O)[C@@H](CC(=O)N[C@H]1CCCC[C@@H]1C(=O)N[C@H]1CCCC[C@@H]1C(=O)N[C@H](CC(=O)N[C@H]1CCCC[C@@H]1C(N)=O)Cc1ccc(O)cc1)NC(=O)[C@H]1CCCC[C@@H]1N", "experimental result": 84}
{"item smiles": "NC(=O)C[C@@H](CC(=O)N[C@H]1CCCC[C@@H]1C(=O)N[C@H]1CCCC[C@@H]1C(=O)N[C@H](CC(=O)N[C@H]1CCCC[C@@H]1C(N)=O)Cc1ccccc1)NC(=O)[C@H]1CCCC[C@@H]1N", "experimental result": 45}
{"item smiles": "NC(=O)C[C@@H](CC(=O)N[C@H]1CCCC[C@@H]1C(N)=O)NC(=O)[C@H]1CCCC[C@@H]1NC(=O)[C@H]1CCCC[C@@H]1NC(=O)C[C@H](CC(N)=O)NC(=O)[C@H]1CCCC[C@@H]1N", "experimental result": 162}

Challenge: // lookup Kd for N=C(N)NCCC[C@@H](CC(=O)N[C@H]1CCCC[C@@H]1C(N)=O)NC(=O)[C@H]1CCCC[C@@H]1NC(=O)[C@H]1CCCC[C@@H]1NC(=O)C[C@H](Cc1ccc(O)cc1)NC(=O)[C@H]1CCCC[C@@H]1N
Response given: 11

Challenge: // lookup Kd for CSCC[C@@H](CC(=O)N[C@H]1CCCC[C@@H]1C(N)=O)NC(=O)[C@H]1CCCC[C@@H]1NC(=O)[C@H]1CCCC[C@@H]1NC(=O)C[C@H](CC(N)=O)NC(=O)[C@H]1CCCC[C@@H]1N
Response given: 50
